In this section, each of the compounds is paired with its reported CC50.
- ASSAY INFO: Cytotoxicity against human HuH7 cells assessed as reduction in cell viability
- Type: cell-based, Huh-7
REPORTED METRIC: CC50

C[C@@]1(O)[C@H](O)[C@@H](CO)O[C@H]1n1ccc(=O)[nH]c1=O
> 100 µM
C[C@@]1(F)[C@H](O)[C@@H](CO)O[C@H]1n1ccc(=O)[nH]c1=O
> 100 µM
C[C@@]1(Cl)[C@H](O)[C@@H](CO)O[C@H]1n1ccc(=O)[nH]c1=O
> 100 µM

###

- TESTED SYSTEM: DNA polymerase beta (Homo sapiens, UniProt P06746)
REPORTED METRIC: IC50

C[C@@]1(Cl)[C@H](O)[C@@H](COP(=O)(O)OP(=O)(O)OP(=O)(O)O)O[C@H]1n1ccc(=O)[nH]c1=O
> 500 µM

###

- System: Plasma
- ASSAY INFO: Dose normalized AUC (0 to 24 hrs) in mouse plasma assessed as 2'-C-MeU level at 10 mg/kg, po administered as single dose
- Format: ADME, organism-based
- SETTINGS: in vivo
In this section, each of the compounds is paired with its reported AUC/dose.
REPORTED METRIC: AUC/dose (pmol·h/mL)

CCOC(=O)[C@H](CC(C)C)N[P@](=O)(OC[C@H]1O[C@@H](n2ccc(=O)[nH]c2=O)[C@](C)(Cl)[C@@H]1O)Oc1ccccc1
2100
CC(C)OC(=O)[C@H](C)N[P@](=O)(OC[C@H]1O[C@@H](n2ccc(=O)[nH]c2=O)[C@](C)(Cl)[C@@H]1O)Oc1ccccc1
1300
CC(C)OC(=O)[C@H](C)N[P@@]1(=O)OC[C@H]2O[C@@H](n3ccc(=O)[nH]c3=O)[C@](C)(Cl)[C@@H]2O1
1100
CC(C)OC(=O)[C@@H](C)N[P@@]1(=O)OC[C@H]2O[C@@H](n3ccc(=O)[nH]c3=O)[C@](C)(Cl)[C@@H]2O1
770
CCCCOC(=O)[C@@H](C)N[P@@](=O)(OC[C@H]1O[C@@H](n2ccc(=O)[nH]c2=O)[C@](C)(Cl)[C@@H]1O)Oc1ccccc1
1700
CC(C)OC(=O)[C@H](C)N[P@@](=O)(OC[C@H]1O[C@@H](n2ccc(=O)[nH]c2=O)[C@](C)(Cl)[C@@H]1O)Oc1ccccc1
970

###

- Test system: Plasma
- ASSAY INFO: Dose normalized AUC (0 to 24 hrs) in mouse plasma assessed as 2'-C-MeU level at 10 mg/kg, po administered as single dose
- Type: ADME, organism-based
- SETTINGS: in vivo
In this section, each of the compounds is paired with its reported AUC/dose.
REPORTED METRIC: AUC/dose (pmol·h/mL)

CC(C)OC(=O)[C@@H](C)N[P@]1(=O)OC[C@H]2O[C@@H](n3ccc(=O)[nH]c3=O)[C@](C)(Cl)[C@@H]2O1
910
CCCCOC(=O)[C@@H](C)N[P@](=O)(OC[C@H]1O[C@@H](n2ccc(=O)[nH]c2=O)[C@](C)(Cl)[C@@H]1O)Oc1ccccc1
1700
CCOC(=O)[C@H](CC(C)C)N[P@@](=O)(OC[C@H]1O[C@@H](n2ccc(=O)[nH]c2=O)[C@](C)(Cl)[C@@H]1O)Oc1ccccc1
940
CC(C)(CO)C(=O)SCCOP1(=O)OC[C@H]2O[C@@H](n3ccc(=O)[nH]c3=O)[C@](C)(Cl)[C@@H]2O1 (single isomer, unassigned)
1300
CC(C)OC(=O)[C@H](C)N[P@]1(=O)OC[C@H]2O[C@@H](n3ccc(=O)[nH]c3=O)[C@](C)(Cl)[C@@H]2O1
570
CC(C)(CO)C(=O)SCCO[P@@]1(=O)OC[C@H]2O[C@@H](n3ccc(=O)[nH]c3=O)[C@](C)(Cl)[C@@H]2O1
710
CC(C)OC(=O)[C@@H](C)NP(=O)(N[C@H](C)C(=O)OC(C)C)OC[C@H]1O[C@@H](n2ccc(=O)[nH]c2=O)[C@](C)(Cl)[C@@H]1O
210

###

- ASSAY INFO: Selectivity index, ratio of CC50 for human Huh-7 cells to EC50 for HCV genotype 1b Con1 expressing NS3 protease
REPORTED METRIC: Ratio CC50/EC50

CCOC(=O)[C@@H](CC(C)C)N[P@@](=O)(OC[C@H]1O[C@@H](n2ccc(=O)[nH]c2=O)[C@](C)(Cl)[C@@H]1O)Oc1ccccc1
>3
CC(C)(CO)C(=O)SCCOP1(=O)OC[C@H]2O[C@@H](n3ccc(=O)[nH]c3=O)[C@](C)(Cl)[C@@H]2O1 (single isomer, unassigned)
>403
CC(C)OC(=O)[C@H](C)N[P@@](=O)(OC[C@H]1O[C@@H](n2ccc(=O)[nH]c2=O)[C@](C)(F)[C@@H]1O)Oc1ccccc1
>48
CCOC(=O)[C@H](C)N[P@](=O)(OC[C@H]1O[C@@H](n2ccc(=O)[nH]c2=O)[C@](C)(Cl)[C@@H]1O)Oc1ccccc1
>389
CC(C)(CO)C(=O)SCCO[P@](=O)(NCc1ccccc1)OC[C@H]1O[C@@H](n2ccc(=O)[nH]c2=O)[C@](C)(Cl)[C@@H]1O
>28
CC(C)OC(=O)[C@H](C)N[P@@](=O)(OC[C@H]1O[C@@H](n2ccc(=O)[nH]c2=O)[C@](C)(Cl)[C@@H]1O)Oc1ccccc1
>105
CCOC(=O)NCC(C)(C)C(=O)SCCOP1(=O)OC[C@H]2O[C@@H](n3ccc(=O)[nH]c3=O)[C@](C)(Cl)[C@@H]2O1 (single isomer, unassigned; 27a)
>285
CC(C)OC(=O)[C@@H](C)N[P@@]1(=O)OC[C@H]2O[C@@H](n3ccc(=O)[nH]c3=O)[C@](C)(Cl)[C@@H]2O1
>3
CC(C)OC(=O)[C@H](C)N[P@](=O)(OC[C@H]1O[C@@H](n2ccc(=O)[nH]c2=O)[C@](C)(F)[C@@H]1O)Oc1ccccc1 [SOFOSBUVIR]
>352
C[C@@H](N[P@@](=O)(OC[C@H]1O[C@@H](n2ccc(=O)[nH]c2=O)[C@](C)(Cl)[C@@H]1O)Oc1ccccc1)C(=O)OCc1ccccc1
>23
CCOC(=O)NCC(C)(C)C(=O)SCCO[P@@](=O)(NCc1ccccc1)OC[C@H]1O[C@@H](n2ccc(=O)[nH]c2=O)[C@](C)(Cl)[C@@H]1O
>86
CCOC(=O)NCC(C)(C)C(=O)SCCOP1(=O)OC[C@H]2O[C@@H](n3ccc(=O)[nH]c3=O)[C@](C)(Cl)[C@@H]2O1 (single isomer, unassigned; 27b)
>1370
CCOC(=O)[C@@H](CC(C)C)N[P@](=O)(OC[C@H]1O[C@@H](n2ccc(=O)[nH]c2=O)[C@](C)(Cl)[C@@H]1O)Oc1ccccc1
>1
CC(C)OC(=O)[C@@H](C)N[P@](=O)(OC[C@H]1O[C@@H](n2ccc(=O)[nH]c2=O)[C@](C)(Cl)[C@@H]1O)Oc1ccccc1
>10
CC(C)C[C@H](N[P@@](=O)(OC[C@H]1O[C@@H](n2ccc(=O)[nH]c2=O)[C@](C)(Cl)[C@@H]1O)Oc1ccccc1)C(=O)OC(C)C
>8
CCCCOC(=O)[C@@H](C)N[P@](=O)(OC[C@H]1O[C@@H](n2ccc(=O)[nH]c2=O)[C@](C)(Cl)[C@@H]1O)Oc1ccccc1
>189
CCOC(=O)[C@H](CC(C)C)N[P@](=O)(OC[C@H]1O[C@@H](n2ccc(=O)[nH]c2=O)[C@](C)(Cl)[C@@H]1O)Oc1ccccc1
>344
CC(C)OC(=O)[C@@H](C)N[P@@](=O)(OC[C@H]1O[C@@H](n2ccc(=O)[nH]c2=O)[C@](C)(Cl)[C@@H]1O)Oc1ccccc1 [UPRIFOSBUVIR]
>2
CC(C)OC(=O)[C@@H](C)NP(=O)(N[C@H](C)C(=O)OC(C)C)OC[C@H]1O[C@@H](n2ccc(=O)[nH]c2=O)[C@](C)(Cl)[C@@H]1O
>1
